The measured values listed here are drawn from PubChem BioAssay AID651820.

- Procedure Text: qHTS Assay for Inhibitors of Hepatitis C Virus (HCV)
- Measurement Context: Huh7.5.1 HCVcc-Cre infection, luciferase reporter, 44 h; series mostly up to 41.8 µM
In all, about 340,000 compounds went through this assay and about 12,000 (3.5%) were called active. Roughly 18% stayed inconclusive and do not appear here. The call rests on the fitted dose curve; in most records, active means well fitted inhibition curve with a large enough effect; inconclusive means small, poorly fitted or top-dose-only effect, or another doubt; inactive means no such curve, though single readings can be large or run the other way. The entries come from a sample that favours actives as a whole.
Outcome codes: Y = active, N = inactive

INSERT INTO results (molecule, label) VALUES
  ('COc1ccc(NS(=O)(=O)c2ccc(N3CCOCC3)c(NC(=O)/C=C/C(=O)O)c2)cc1', 'N'),
  ('NC(=O)c1ccc(NC(=O)COC(=O)c2ccc([N+](=O)[O-])cc2)cc1', 'N'),
  ('O=C(COC(=O)c1ccc2ncsc2c1)Nc1ccc(Cl)cc1', 'N'),
  ('CCOc1ncccc1C(=O)Nc1ccc2c(c1)OCCO2', 'N'),
  ('O=C(NCCCN1CCOCC1)c1ccc2c(c1)N(Cc1cccc(F)c1)C(=O)c1ccccc1S2', 'N'),
  ('COc1ccc(CCNC(=O)c2ccc3c(c2)NC(=O)C(N2CCOCC2)S3)cc1OC (stereo unspecified)', 'N'),
  ('O=C(COC(=O)/C=C/c1ccc(OC(F)F)cc1)NC1CCCCC1', 'N'),
  ('Cc1nn(Cc2ccccc2)c(C)c1C(=O)NCCN1C(=O)S/C(=C\c2ccc(F)cc2)C1=O', 'N'),
  ('N#Cc1cccc(NC(=O)COC(=O)c2ccccc2C(=O)c2ccc(Cl)c([N+](=O)[O-])c2)c1', 'Y'),
  ('COC(=O)CNS(=O)(=O)c1ccc(OC)cc1', 'N'),
  ('CCN1CCN(CCNC(=O)c2ccc(/C=C3/Sc4ccccc4N(Cc4cccc(C)c4)C3=O)cc2)CC1', 'Y'),
  ('O=C(O)C(=Cc1ccccc1[N+](=O)[O-])c1ccccc1', 'N'),
  ('COc1ccc(S(=O)(=O)NCCCCOc2ccc(Cl)cc2)cc1', 'Y'),
  ('Cc1c(NC(=O)CSc2nnc(-c3cccnc3)n2N)c(=O)n(-c2ccccc2)n1C', 'N'),
  ('O=C(COC(=O)c1ccc(O)cc1O)c1ccc2c(c1)OCCO2', 'N'),
  ('COc1ccccc1CNC(=O)COC(=O)CNS(=O)(=O)c1ccc(NC(C)=O)cc1', 'N'),
  ('CC(=O)NCc1ccc(-c2csc(NC(=O)CCCc3nc4ccccc4c(=O)[nH]3)n2)cc1', 'N'),
  ('CCN1CCN(CCNC(=O)c2ccc3c(c2)NC(=O)/C(=C\c2ccc(OC)c(OC)c2)S3)CC1', 'Y'),
  ('COc1ccc(S(=O)(=O)NCCOc2ccccc2)cc1F', 'N'),
  ('O=C(COC(=O)c1n[nH]c2ccccc12)Nc1ccccc1Br', 'N'),
  ('O=C(CCNC(=O)c1ccc(Br)cc1)Nc1cccc(S(=O)(=O)N2CCCCC2)c1', 'N');
